Data provenance: paper PMC5442318

I'd appreciate it if you could supply pIC50 values for the items below.
test system: P. falciparum stage V female gametocytes; experiment: P. falciparum female gametocyte activation assay (Pf FGAA), 24 h or 48 h preincubation, Pfs25 expression readout; format: cell-based, Plasmodium falciparum NF54; conditions: P. falciparum female gametocytes; mean; read-out: Gametocytes mean Pf FGAA IC50
One number for each entry, as −log10 of the molar value.

- molecule: "Cc1c(Cl)cccc1N=C(S)NN=Cc1ccccn1"
  targetSystem: "P. falciparum stage V female gametocytes"
  pIC50: 7.55

Hey, quick one: what's pIC50 for each of these?
1. Cc1sc2ncnc(Sc3nnc(N)s3)c2c1C
2. S=C(NN=Cc1ccccn1)NC1CC2C=CC1C2 (centres unmarked)

1: 6.11; 2: 7.82

* * *

test system: HepG2 cells; test: HepG2 cytotoxicity assay; format: cell-based; conditions: mean
I'd appreciate it if you could supply HepG2 cells mean TOX50 values for the items below.
Numbers only, in µM.

Take a look at these entries with their results.
- chemicalStructure: "Cc1cc(N)c2cc(NC(=O)/C=C/c3ccc([N+](=O)[O-])cc3)ccc2n1"
  propertyLabel: "HepG2 cells mean TOX50"
  valueMeasured: 5.37
- chemicalStructure: "CC(C)Oc1ccc2ccccc2c1CNCCCCCCNCc1c(OC(C)C)ccc2ccccc12.CS(=O)(=O)O"
  propertyLabel: "HepG2 cells mean TOX50"
  valueMeasured: 1.91
- chemicalStructure: "CS(=O)(=O)O.CSc1ccc2ccccc2c1CCNCCCCNCCc1c(SC)ccc2ccccc12"
  propertyLabel: "HepG2 cells mean TOX50"
  valueMeasured: 1.82

Hey, quick one: what's HepG2 cells mean TOX50 for each of these?
1. COc1ccc(NC(=O)c2cccc(Br)c2)cc1N1CCN(CCCCCCCN2CCN(c3cc(NC(=O)c4cccc(Br)c4)ccc3OC)CC2)CC1.Cl
2. COc1cc2nc(Nc3ccc4c(ccn4Cc4ccccc4)c3)nc(Nc3ccc4c(ccn4Cc4ccccc4)c3)c2cc1OC

1. 6.03
2. 14.13

Hey, quick one: what's HepG2 cells mean TOX50 for each of these?
1. COc1cc2c(cc1CCNCCCCNCCc1cc3c(cc1OC)CCCC3)CCCC2.CS(=O)(=O)O
2. CC(C)(CN)c1nc(-c2ccc(Cl)c(O)c2)c(-c2ccncc2)[nH]1.Cl

1: 1.86; 2: 2.16

* * *

I'd appreciate it if you could supply HepG2 cells mean TOX50 values for the items below.
test system: HepG2 cells; assay: HepG2 cytotoxicity assay; format: cell-based; conditions: mean
Numbers only, in µM.

- chemicalStructure: "CC(C)(C)c1ccc(CNCCOc2ccc(Nc3nnc(-c4ccc(-c5ncc[nH]5)cc4)o3)c3ccccc23)cc1.O=C(O)C(F)(F)F"
  HepG2 cells mean TOX50 (µM): 5.96
- chemicalStructure: "CCCCCCCN1CC[C@@H](CCCc2ccnc3ccc(OC)cc23)[C@@H](CNC)C1.O=C(O)C(=O)O"
  HepG2 cells mean TOX50 (µM): 5.89

Hey, quick one: what's HepG2 cells mean TOX50 for each of these?
1. Cl.Fc1cc(Cl)ccc1Nc1ccnc2cc(-c3ccc(CN4CCNCC4)o3)ccc12
2. COc1cc2nc(N3CCC(CNC(=O)c4ccc(-c5ccc(C(F)(F)F)cc5)cc4)CC3)nc(N)c2cc1OC
3. COc1cc2nc(N3CCC(CNCc4ccc(-c5ccc(C(F)(F)F)cc5)cc4)CC3)nc(N)c2cc1OC
4. CN1CCN(CCCNCc2cccc(-c3ccc(CNCCc4ccccc4)cc3)c2)CC1

1: 12.05; 2: 4.92; 3: 1.43; 4: 7.92

* * *

system: HepG2 cells; test: HepG2 cytotoxicity assay; type: cell-based; details: HepG2 cells; mean
// label = class 1 if HepG2 cells mean TOX50 is not less than 10 µM, otherwise class 0

- chemicalStructure: "Cl.c1ccc2c(NCCCCCCCCCNc3c4ccccc4nc4ccccc34)c3ccccc3nc2c1"
  category: "class 0"
- chemicalStructure: "CN1CCC(N2CCN(Cc3cccc(-c4ccc(-c5nc6cc(C(F)(F)F)ccc6[nH]5)cc4)c3)CC2)CC1.O=C(O)C(F)(F)F"
  category: "class 0"
- chemicalStructure: "Cc1cccc2nc(-c3ccc(-c4ccc(CNCc5ccc(CN)cc5)cc4)s3)[nH]c12.O=C(O)C(F)(F)F"
  category: "class 1"
- chemicalStructure: "O=C(c1ccc([N+](=O)[O-])o1)N1CCN(c2nc3c(Cl)cccc3s2)CC1"
  category: "class 1"

For this compound, is measured HepG2 cells mean TOX50 10 µM or higher? COc1cccc(OC)c1CN1CCC(N(C)CCCCCCCCCN2CCC(OC(=O)Nc3ccccc3-c3ccccc3)CC2)CC1
class 0

* * *

tested on: P. falciparum stage V female gametocytes; experiment: P. falciparum female gametocyte activation assay (Pf FGAA), 24 h or 48 h preincubation, Pfs25 expression readout; type: cell-based, Plasmodium falciparum NF54; conditions: P. falciparum female gametocytes; mean; read-out: Gametocytes mean Pf FGAA IC50
propertyLabel: pIC50
One number for each entry, as −log10 of the molar value.

- compound: "CC(C)c1ccc(CN2CCC(CNC(=O)c3cc(-c4cccc(C(F)(F)F)c4)cs3)C2)cc1.O=C(O)C(F)(F)F (centres unmarked)"
  pIC50: 5.89
- compound: "FC(F)(F)c1cccc(Nc2nc3ccccc3nc2Nc2cccc(C(F)(F)F)c2)c1"
  pIC50: 5.62
- compound: "CC(Nc1cc(-c2ccccn2)nc(-c2ccccn2)n1)c1ccccc1 (centres unmarked)"
  pIC50: 6.68
- compound: "Cc1ccc(Cn2nc(N3CCNCC3)ccc2=O)cc1NC(=O)Nc1ccc(-c2ccccc2)cc1.O=C(O)C(F)(F)F"
  pIC50: 5.71
- compound: "Cc1ccc(-n2c(Sc3ncnc4sccc34)nnc2N2CCCC2)cc1"
  pIC50: 6.31
- compound: "C[C@H](Cc1ccc(OCCCCCCOc2ccc(C[C@@H](C)N[C@H](C)c3ccccc3)cc2)cc1)NC[C@H](O)c1cccc(Cl)c1.Cl"
  pIC50: 6.14

Hey, quick one: what's pIC50 for each of these?
1. CN1CCN(Cc2ccc(-c3cc4c(Nc5ccc(OCc6cccc(F)c6)c(Cl)c5)ncnc4s3)[nH]2)CC1
2. C=CCN(C(=O)c1ccc(Cl)c([N+](=O)[O-])c1)c1nc(-c2ccccc2)cs1
3. Cc1ccc(C)c2sc(N3CCN(C(=O)c4ccc([N+](=O)[O-])o4)CC3)nc12

1: 5.62; 2: 6.89; 3: 5.95

* * *

System: P. falciparum stage V female gametocytes
Experiment: P. falciparum female gametocyte activation assay (Pf FGAA), 24 h or 48 h preincubation, Pfs25 expression readout
Type: cell-based, Plasmodium falciparum NF54
Settings: P. falciparum female gametocytes; mean; read-out: Gametocytes mean Pf FGAA IC50
Experimental: P. falciparum NF54 (originally isolated from an imported malaria case in the Netherlands in the 1980s; BEI Resources, cat. no. MRA-1000) asexual-stage culture was performed as described by Trager and Jensen[37]. […] Sexual-stage development was monitored microscopically by Giemsa-stained thin blood smears at day 7 (mainly asexual stages and stages I to III gametocytes) and day 14 (stages IV and V gametocytes). […]
Please use 1 for IC50 under 1 µM and 0 for everything else, ties included.

- compound: "CC(C)(C)OC(=O)NCc1ccc(Nc2nnc(-c3cccc(C(=O)NCc4cc(C(F)(F)F)cc(C(F)(F)F)c4)c3)o2)cc1"
  category: 0
- compound: "CCCC(=O)NC(c1ccc(C(C)C)cc1)c1ccc2cccnc2c1O (centres unmarked)"
  category: 0
- compound: "Cn1c(Sc2ncnc3sccc23)nc2ccccc21"
  category: 0

Just wondering, is IC50 of Cc1ccccc1OCC(O)CNC1CCC(NCC(O)COc2ccccc2C)CC1 (centres unmarked) below 1 µM?
0

Next: Br.Oc1ccc(CCNCCCCCCNCCc2ccc(Cl)c3ccccc23)cc1O
0

Next: COc1cc2nc(NCCCN3CCCCC3)nc(NCc3ccccc3)c2cc1OC
1

Next: O=C(c1ccc([N+](=O)[O-])o1)N1CCC(Cc2ccc(C(F)(F)F)cc2)CC1
1
